Tested on: RET
Conditions: concentration: 1 μM, replicates: in singlicate; n = 1;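 also: KINOMEscan kinase panel screen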
property: %Inh (%)
# output: bare number, implied unit %

Ask: # input compound: CN1c2ccc(-c3ccc(C(N)=O)cc3)cc2-c2[nH]ncc2S1(=O)=O ; wanted: its %Inh
Reply: 1

Ask: Would you kindly share the measured %Inh for Fc1ccc(-c2nn3cccc(F)c3c2-c2ccncc2)cc1 ?
Reply: 98

Ask: Bench note: what %Inh did Cn1cnc2c(N)ncnc21 show?
Reply: 0

Ask: Which %Inh reading was recorded for the compound Cn1cncc1-c1cc2c(Nc3ccc(OCc4ccccc4)cc3)ncnc2cn1 ?
Reply: 5

Ask: Quick one: %Inh for O=C(Nc1n[nH]c2nc(-c3ccco3)c(Br)cc12)C1CCN(Cc2ccccc2)C1.O=C(O)[C@H](O)[C@@H](O)C(=O)O (stereo not drawn) ?
Reply: 2

Ask: Record request: %Inh value, item CS(=O)(=O)CCNCc1nc(-c2ccc3ncnc(Nc4ccc5c(cnn5Cc5ccccc5)c4)c3c2)cs1.Cl.Cl
Reply: 0

Ask: Record request: %Inh value, item CNC(=O)c1ccc(C)c(-n2c(C)cc(OCc3ccc(F)cc3F)c(Br)c2=O)c1
Reply: 0

Ask: Returns the measured %Inh for the input compound. Input: CC(=O)c1cccc(NC(=O)NC2CCN(c3ccnc(Nc4ccc(F)cc4)n3)C2)c1 (stereo not drawn)
Reply: 0

Ask: Given the compound CCn1c(-c2c(N)noc2C)nc2cnccc21 , what is its reported %Inh?
Reply: 0

###

Would you kindly list %Inh for each of these compounds?
System: TTK
Conditions: concentration: 1 μM, replicates: in singlicate; n = 1
Form entry: value (%) — number only.

Ask: State the recorded %Inh for this entry: CS(=O)(=O)Cc1ccc(Nc2nccc(-c3c(-c4cccc(NC(=O)C5CCCCC5)c4)nn4ncccc34)n2)cc1 [GSK350559]
Reply: 0

Ask: # query: %Inh of entry Cc1ccc(NC(=O)Nc2ccccc2F)cc1-c1ccc(C(=O)Nc2ccncc2)cc1 [GSK1398477]
Reply: 22

Ask: What %Inh value was documented for this compound, Cn1cncc1C(=O)NC1CCN(c2ccnc(Nc3ccc(F)cc3)n2)C1 (stereo not shown) [GSK1379717] ?
Reply: 0

Ask: Look at this compound and give its reported %Inh. CC(=O)c1cccc(NC(=O)NC2CCN(c3ccnc(Nc4ccc(F)cc4)n3)C2)c1 (stereo not shown) [GSK1379710]
Reply: 23

###

Task for the reader: assign each of the following compounds its reported %Inh.
System: RSK2(Kin.Dom.1-N-terminal)
Construct: gene RPS6KA3
Details: concentration: 1 μM, replicates: in singlicate; n = 1
API: value field is a number in %; no unit string.

Ask: Can you look up the measured %Inh of O=C(Nc1n[nH]c2nc(-c3cccs3)c(Br)cc12)C1CC1 [SB-735297] for me?
Reply: 22

Ask: What value of %Inh has been reported for the following compound? COc1nccc(-c2c(-c3ccc(F)cc3)ncn2CCCN2CCOCC2)n1 [SB-282852]
Reply: 27

Ask: // query %Inh value for entry CCCCc1nn2ncccc2c1-c1ccnc(NC2CC2)n1 [GW684374]
Reply: 26

Ask: Record request: %Inh value, item Nc1ncnc2occ(-c3ccc4c(c3)CCN4C(=O)Cc3cc(F)ccc3F)c12 [GSK2645446]
Reply: 0

Ask: Report %Inh for Cc1ccc(NC(=O)Nc2ccccc2F)cc1-c1ccc(C(=O)Nc2ccncc2)cc1 [GSK1398477] please.
Reply: 9
